# target_of_assay: Vascular endothelial growth factor receptor 2 (Homo sapiens) (UniProt P35968)
# Sequence (P35968 whole entry): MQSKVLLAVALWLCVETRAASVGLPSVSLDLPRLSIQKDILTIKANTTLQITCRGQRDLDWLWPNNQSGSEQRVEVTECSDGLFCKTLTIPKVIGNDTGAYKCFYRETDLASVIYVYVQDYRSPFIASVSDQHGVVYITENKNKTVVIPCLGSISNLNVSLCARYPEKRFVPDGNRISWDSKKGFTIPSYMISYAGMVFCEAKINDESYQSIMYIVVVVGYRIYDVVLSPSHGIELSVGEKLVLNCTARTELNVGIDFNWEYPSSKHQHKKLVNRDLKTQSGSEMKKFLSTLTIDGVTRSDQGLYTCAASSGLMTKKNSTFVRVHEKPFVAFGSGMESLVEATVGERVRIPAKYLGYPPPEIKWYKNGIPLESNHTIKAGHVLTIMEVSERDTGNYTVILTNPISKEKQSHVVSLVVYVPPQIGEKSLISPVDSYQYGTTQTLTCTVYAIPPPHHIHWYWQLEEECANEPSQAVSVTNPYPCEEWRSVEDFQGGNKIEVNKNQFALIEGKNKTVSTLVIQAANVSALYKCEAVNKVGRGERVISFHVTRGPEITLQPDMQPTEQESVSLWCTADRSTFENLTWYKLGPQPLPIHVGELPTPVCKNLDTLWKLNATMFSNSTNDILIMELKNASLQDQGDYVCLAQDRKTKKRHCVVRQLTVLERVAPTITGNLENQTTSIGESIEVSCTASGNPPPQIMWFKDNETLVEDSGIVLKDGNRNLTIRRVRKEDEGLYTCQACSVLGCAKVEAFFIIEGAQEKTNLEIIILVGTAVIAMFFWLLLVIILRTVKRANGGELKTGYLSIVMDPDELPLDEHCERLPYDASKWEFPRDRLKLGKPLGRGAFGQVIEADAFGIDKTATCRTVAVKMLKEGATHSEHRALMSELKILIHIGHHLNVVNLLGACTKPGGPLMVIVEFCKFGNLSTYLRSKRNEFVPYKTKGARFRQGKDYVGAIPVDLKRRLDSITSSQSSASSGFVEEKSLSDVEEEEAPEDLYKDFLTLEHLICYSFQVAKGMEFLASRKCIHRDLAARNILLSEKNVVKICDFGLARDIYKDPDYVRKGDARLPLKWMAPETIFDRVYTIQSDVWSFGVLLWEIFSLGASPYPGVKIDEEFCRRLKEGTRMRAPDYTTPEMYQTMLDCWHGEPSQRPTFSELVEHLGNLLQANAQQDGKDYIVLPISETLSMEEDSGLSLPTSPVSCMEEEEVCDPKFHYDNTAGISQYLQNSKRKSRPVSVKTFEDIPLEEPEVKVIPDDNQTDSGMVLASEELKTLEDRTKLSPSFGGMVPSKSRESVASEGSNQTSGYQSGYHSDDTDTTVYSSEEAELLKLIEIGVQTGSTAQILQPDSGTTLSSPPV
# conditions_used: at 0.1 µM
# Description: GSK_PKIS: KDR mean inhibition at 0.1 uM [Nanosyn]
// values below are reported inhibition
Please give a number only; it is taken to be in %.

See these solved cases before continuing.
item_smiles	target_of_assay	endpoint	uom	obs_value
NS(=O)(=O)c1ccc(-c2ccc3c(NC(=O)C4CC4)n[nH]c3c2)cc1	Vascular endothelial growth factor receptor 2 (Homo sapiens) (UniProt P35968)	inhibition	%	3.61
CCn1c(-c2nonc2N)nc2c(C#CCN)ncc(OCCCN)c21	Vascular endothelial growth factor receptor 2 (Homo sapiens) (UniProt P35968)	inhibition	%	-3.31
COc1cccc(COc2cc(-n3cnc4ccccc43)sc2C(N)=O)c1	Vascular endothelial growth factor receptor 2 (Homo sapiens) (UniProt P35968)	inhibition	%	-3.84

## Task Complete the entry with inhibition for CCn1c(-c2nonc2N)nc2c(C#CC(C)(C)O)nc(O[C@@H](CN)c3ccccc3)cc21
## Result 86.8

## Task Complete the entry with inhibition for COc1cc(C=NNc2ncnc3c2cnn3Cc2ccccc2)ccc1O
## Result -1.08

## Task Complete the entry with inhibition for NC(=O)c1sc(-n2cnc3cc(C(F)(F)F)ccc32)cc1OCc1ccccc1Br
## Result 1.59
